The reported numbers originate from the supplement of paper PMC10567573.

Protocol summary: protein stability index of a GFP-peptide fusion (GPS, HEK-293T) (PSI 1-6); higher = more stable;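 also: 24-mer peptide tiles fused after GFP, lentivirally expressed, FACS-sorted into six equal bins by GFP/DsRed ratio, decoded by Illumina sequencing, PSI is the read-weighted mean bin number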
Condition: treatment: DMSO; c terminus: a fixed tail appended
Short version: protein stability index at least 3 is T, less is F.

Solved cases below.
seq_string="ERPQDRDTPVQNKRRRSVTPPEEQ [CDC25B]" qualitative_label=T
seq_string="GSVPLPESTRELGELLGEARYYLV [KCTD13]" qualitative_label=F
seq_string="QPPRFPVPHNGSSEATLPAQMSTL [PDLIM4]" qualitative_label=T

Exercise: Please check the record RPLARPIKRGDILPPEKGREVAKE [RHOBTB1] and state if its protein stability index is at or above 3.
Key: T

Exercise: Please check the record PTARHFQEHPRQQLATSSFLLFLL [MOSPD3] and state if its protein stability index is at or above 3.
Key: F

====

Protocol summary: protein stability index of a GFP-peptide fusion (GPS, HEK-293T) (PSI 1-6); higher = more stable
Condition: treatment: MLN4924 1 uM, 8 h; c terminus: a fixed tail appended
Readout kind: protein stability index
Please reply with the value in numeric form only.

Here is how some sequences turned out for protein stability index.
seq_string="EEGILVAVGQDCYTRIWSLHDARL [DCAF4]" result_value=2.09
seq_string="PFSSVTEEELNFEKGETMEVIEKP [NCK2]" result_value=5.42
seq_string="LVENAKNFPQCVLEISDQEVLEWY [EFHC1]" result_value=2.87

Exercise: Please supply the value of reported protein stability index for the item KCGDLECEALINRVSAMRDYRGPD [MIA2]
Key: 3.21

Exercise: Please supply the value of reported protein stability index for the item `PARTVLVGSLSWLRKQLQPTHCKY`
Key: 2.19

Exercise: Please supply the value of reported protein stability index for the item WKYFKGNFYYFSLIPKTWYSAEQF [CD207]
Key: 2.78

Exercise: Please supply the value of reported protein stability index for the item APPLPDSPQPLASSPGPWGLEALA [FCHO1]
Key: 3.99

Exercise: Please supply the value of reported protein stability index for the item ECLPENLGGYVKIDLATWNFQFLP [PTPN9]
Key: 2.21

Exercise: Please supply the value of reported protein stability index for the item SIGLRDYAGNLHESGVHGALLALD [PPFIA4]
Key: 3.73

Exercise: Please supply the value of reported protein stability index for the item ICEDSFDGRSLSKLNLCEDGPCHK [SCARA5]
Key: 4.57

Exercise: Please supply the value of reported protein stability index for the item NAAYFVGKWMKKFPESETKECPFR [SERPINB5]
Key: 2.98

Exercise: Please supply the value of reported protein stability index for the item MMHGGSYSLTTSSTHKRSSLRKVK [RAB40B]
Key: 4.35

Exercise: Please supply the value of reported protein stability index for the item QHKCDECGKSFTQSSGLIRHQRIH [ZSCAN9]
Key: 5.28

====

Protocol summary: protein stability index of a GFP-peptide fusion (GPS, HEK-293T) (PSI 1-6); higher = more stable
Condition: treatment: MLN4924 1 uM, 8 h; c terminus: a fixed tail appended
Short version: protein stability index at least 3 is YES, less is NO.

seq_string="IDSGSPAEEAGLKNNDLVVAVNGE [PDZK1]" qualitative_label=YES
seq_string="HTETKTITYESSQVDPGTDLEPGV [EPB41L3]" qualitative_label=YES

Exercise: Please check the record DRLRINRFAWPKVLKISYKRNNFY [EPB41L3] and state if its protein stability index is at or above 3.
Key: NO

Exercise: Please check the record NTEEQLEIALAPYQHLEEDMKSLK [MTUS2] and state if its protein stability index is at or above 3.
Key: YES

Exercise: Please check the record QAGPSPAPPTPPEEEDLRRRLKYF [MCOLN1] and state if its protein stability index is at or above 3.
Key: YES

Exercise: Please check the record QADTVHSNPELDVLLLGSVDGRHL [DNAAF3] and state if its protein stability index is at or above 3.
Key: YES

Exercise: Please check the record CKLTCQAQALGYYYVLEPRVVDGT [ADAMTS4] and state if its protein stability index is at or above 3.
Key: NO

Exercise: Please check the record DMWSLGCILVEMHTGEPLFSGSNE [DYRK1B] and state if its protein stability index is at or above 3.
Key: NO

Exercise: Please check the record EFQERARKRIRTYLKSCRRMKKNG [NOL4L] and state if its protein stability index is at or above 3.
Key: YES

Exercise: Please check the record AALSERGQAEEELIKAKSQARLEE [LRRC45] and state if its protein stability index is at or above 3.
Key: YES

Exercise: Please check the record IVPNSNGVITTTPTPPGQYFYPRG [JUNB] and state if its protein stability index is at or above 3.
Key: YES

Exercise: Please check the record DQKVPYIFRDNQWVGFDDVESFKT [CHIT1] and state if its protein stability index is at or above 3.
Key: YES

Exercise: Please check the record LFLRCSLRHKDEEEEDDDDIHITA [DRICH1] and state if its protein stability index is at or above 3.
Key: YES

Exercise: Please check the record QQYRQDQRDGSKSEDELDQASTPT [CCND2] and state if its protein stability index is at or above 3.
Key: YES

Exercise: Please check the record VGRGEVVTVRVPTHEEGSYLFWEF [ACBD3] and state if its protein stability index is at or above 3.
Key: NO

Exercise: Please check the record EMKLQKNFLTQRENTIAGANHTHT [C10orf62] and state if its protein stability index is at or above 3.
Key: YES

Exercise: Please check the record FVLAEDGRRCKKCTEGPIDLVFVI [MATN2] and state if its protein stability index is at or above 3.
Key: NO

Exercise: Please check the record VQRSPWLMMRMGILGRGLQEYQLP [TCAP] and state if its protein stability index is at or above 3.
Key: NO

Exercise: Please check the record SSAGGAKAGQPESRALALFDIQKI [ZNF8] and state if its protein stability index is at or above 3.
Key: YES

Exercise: Please check the record GTTEAATQDGKEQPELPCAMAMGT [PXN] and state if its protein stability index is at or above 3.
Key: YES

Exercise: Please check the record QTALLESSCENKRADLVFIIDSSR [MATN2] and state if its protein stability index is at or above 3.
Key: YES

Exercise: Please check the record VAEQVGIDKGDIPDLTQAPSSLME [SNAP91] and state if its protein stability index is at or above 3.
Key: YES

Exercise: Please check the record MLPGVLAGVSAEESWAGPQPLETL [SCNN1D] and state if its protein stability index is at or above 3.
Key: YES

Exercise: Please check the record ESPSFLSLRKGASLSNGQGSRVLH [NCK2] and state if its protein stability index is at or above 3.
Key: YES
